Could you please report measured melting point for the items listed next?
Only the number, expressed in °C, is required.

Need melting point of `Cc1cc(C(C)C)ccc1COc1ccc(-c2c(-c3ccncc3)nn3c2C(=O)NCC3)cc1` , thanks.
247

Record: `N#Cc1ccc(COc2ccc(-c3c(-c4ccncc4)nn4c3C(=O)NCC4)cc2)cc1Cl`
257

Then this compound: CC(C)c1ccc(COc2ccc(-c3c(-c4ccncc4)nn4c3C(=O)N(CC(O)CO)CC4)cc2)c(F)c1F (stereo not drawn) [Compound 101]
192

Please answer likewise for CC(O)CN1CCn2nc(-c3ccncc3)c(-c3ccc(OCc4ccc(C5CC5)cc4)cc3)c2C1=O (stereo not drawn) [Compound 134]
196

Same question, `CC(C)c1ccc(COc2ccc(-c3c(-c4ccncn4)nn4c3C(=O)N(C)CC4)cc2)cc1` this time
160

Next compound up: `COc1ncc(COc2ccc(-c3c(-c4ccncc4)nn4c3C(=O)NCC4)cc2)cn1`
248

Likewise for CC(C)c1ccc(C2CCc3cc(-c4c(-c5ccncc5)nn5c4C(=O)NCC5)ccc3O2)cc1 (stereo not drawn) ?
262

Thanks! And `CC(C)Oc1cc(-c2c(-c3ccncc3)nn3c2C(=O)NCC3)ccc1OCc1ccc(C(C)C)cc1` ?
206

Try this compound next: `COc1cc(-c2c(-c3ccncc3)nn3c2C(=O)N(CCO)CC3)cc(OC)c1OCc1ccc(C(C)C)cc1`
176

Query `N#CC1(c2ccc(COc3ccc(-c4c(-c5ccncc5)nn5c4C(=O)NCC5)cc3)cc2)CC1` next
260

Please give the result for `CC(C)Cc1ccc(COc2ccc(-c3c(-c4ccncc4)nn4c3C(=O)NCC4)cc2)cc1` too.
233

Lookup `COCCOc1cc(COc2ccc(-c3c(-c4ccncc4)nn4c3C(=O)NCC4)cc2)ccc1C`
190

Now the same for CC(CO)c1ccc(COc2ccc(-c3c(-c4ccncc4)nn4c3C(=O)NCC4)cc2)cc1 (stereo not drawn)
259

Param item: `CC(C)c1ccc(COc2ccc(-c3c(-c4ccncc4)nn4c3C(=O)NCC4)c(F)n2)cc1`
275

Also `CC(C)NC(=O)CN1CCn2nc(-c3ccncc3)c(-c3ccc(OCc4ccc(C(C)C)cc4)cc3)c2C1` , if possible.
188

`CC(C)c1ccc(COc2cnc(-c3c(-c4ccncc4)nn4c3C(=O)NCC4)cn2)cc1` , same question.
225

Query `CC(C)c1ccc(COc2ccc(-c3c(-c4ccncc4)nn4c3C(=O)NCC4)c(Cl)c2)cc1` next
267

Another compound: `CC(C)c1ccc(COc2ccc(-c3c(-c4ccncc4)nn4c3C(=O)N(CCO)CC4)cc2)c(F)c1`
132

Continue with `CC(C)c1ccc(COc2ccc(-c3c(-c4ccncc4)nn4c3C(=O)N(C)CC4)cc2)cc1`
155

Also, `CC(C)c1ccc(COc2ccc(-c3c(-c4ccncc4)nn4c3C(=O)N(CCO)CC4)cc2)cc1C#N` please.
160

Lookup CC(C)c1cc(F)c(COc2ccc(-c3c(-c4ccncc4)nn4c3C(=O)N(CC(O)CO)CC4)cc2)c(F)c1 (stereo not drawn) [Compound 95]
227

Likewise for `CC(C)c1ncc(COc2ccc(-c3c(-c4ccncc4)nn4c3C(=O)NCC4)cc2)cn1` ?
235

Record: CC(C)c1ccc(C2Oc3ccc(-c4c(-c5ccncc5)nn5c4C(=O)NCC5)cc3NC2=O)cc1 (stereo not drawn)
291

Then this compound: CC(C)c1ccc(COc2ccc(-c3c(-c4ccncc4)nn4c3C(=O)N(CC(O)CO)CC4)cc2)cc1 (stereo not drawn) [Compound 43]
190

One more compound: CCC(C)c1ccc(COc2ccc(-c3c(-c4ccncc4)nn4c3C(=O)N(CCO)CC4)cc2)cc1 (stereo not drawn)
163

Consider next the compound `CC(C)c1ccc(COc2ccc(-c3c(-c4ccncc4)nn4c3C(=O)N(CCO)CC4)cc2)cc1` in the same way.
181

Similarly, `[2H]C([2H])(O)C([2H])([2H])N1CCn2nc(-c3ccncc3)c(-c3ccc(OCc4ccc(C(C)C)cc4)cc3)c2C1=O` ?
179

Input `CC(C)c1ccc(COc2ccc(-c3c(-c4ccncc4)nn4c3C(=O)N(CCO)CC4)cc2)c(F)c1F`
172

Subsequent entry: `O=C1NC2(CC2)Cn2nc(-c3ccncc3)c(-c3ccc(OCc4ccc(C5CC5)cc4)cc3)c21`
239

And `CC(C)c1ccc(COc2ccc(-c3c(-c4ccncc4)nn4c3C(=O)N(CCS(C)(=O)=O)CC4)cc2)cc1` ?
219

The measurements presented in this section are drawn from patent US10280170B2.
